Every entry's value here was drawn from patent US9834548B2.

Consider the following compounds and their measured pIC50 readings.
target: JAK1 (Homo sapiens (Human), UniProt P23458); assay: Purified kinase assay (Z'-LYTE), JAK1; assay type: biochemical; conditions: Table 1; read-out: JAK1 IC50
Sequence (P23458 875-1153): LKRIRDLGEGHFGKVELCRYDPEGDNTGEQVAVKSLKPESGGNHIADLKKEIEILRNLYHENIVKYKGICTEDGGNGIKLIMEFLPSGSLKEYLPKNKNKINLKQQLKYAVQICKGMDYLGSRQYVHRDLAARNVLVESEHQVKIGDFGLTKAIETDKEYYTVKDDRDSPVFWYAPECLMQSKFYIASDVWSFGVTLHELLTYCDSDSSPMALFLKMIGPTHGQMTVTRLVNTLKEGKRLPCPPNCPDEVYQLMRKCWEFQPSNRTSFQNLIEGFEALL
pIC50: −log10 of the molar value.
ENDPOINT NAME: pIC50

>>> readout_value("CCC(=O)N1CCC(Cn2cc(Nc3cc(NCc4cccc(F)c4)c(C(N)=O)nn3)cn2)CC1 [Compound 130]")
"< 6.00"
>>> readout_value("CN(C(=O)C1CC1)c1ccc(Nc2cc(NCc3cccc(F)c3F)c(C(N)=O)nn2)cc1 [Compound 44]")
"< 6.00"
>>> readout_value("NC(=O)c1nnc(Nc2ccc(N3CCOCC3)cc2)cc1NCc1cc(F)ccc1F [Compound 37]")
"< 6.00"
>>> readout_value("CC(C)CNc1cc(Nc2ccc(N3CCNCC3)cc2)nnc1C(N)=O [Compound 15]")
"< 6.00"
>>> readout_value("CC(=O)N1CCN(c2ccc(Nc3cc(NCc4cccc(-n5ccnc5)c4)c(C(N)=O)nn3)cc2)CC1 [Compound 68]")
"< 6.00"
>>> readout_value("NC(=O)c1nnc(Nc2ccc(N3CCOCC3)cc2)cc1NCc1cccc(F)c1F [Compound 38]")
"< 6.00"
>>> readout_value("CC(=O)N1CCN(c2ccc(Nc3cc(NCc4cccc(F)c4)c(C(N)=O)nn3)cn2)CC1 [Compound 49]")
"< 6.00"
>>> readout_value("CC(=O)Nc1cccc(Nc2cc(NC3CCC3)c(C(N)=O)nn2)c1 [Compound 7]")
"< 6.00"
>>> readout_value("Cc1cc(Nc2cc(NCc3cccc(F)c3)c(C(N)=O)nn2)ccc1C(=O)N1CCCC1 [Compound 61]")
"< 6.00"
>>> readout_value("CN(C)C(=O)C1CCN(c2ccc(Nc3cc(NCc4cccc(F)c4)c(C(N)=O)nn3)cc2)CC1 [Compound 90]")
"< 6.00"
>>> readout_value("CC(=O)N1CCN(c2ccc(Nc3cc(NCc4ccc(Cl)s4)c(C(N)=O)nn3)cc2)CC1 [Compound 76]")
"< 6.00"
>>> readout_value("CC(=O)N1CCN(c2ccc(Nc3cc(NC4(c5ccccc5)CC4)c(C(N)=O)nn3)cc2)CC1 [Compound 57]")
"< 6.00"
>>> readout_value("CCC(=O)N1CCC(c2ccc(Nc3cc(NCc4ccccc4F)c(C(N)=O)nn3)cc2)CC1 [Compound 25]")
"< 6.00"
>>> readout_value("CC(=O)N1CCN(c2ccc(Nc3cc(NCc4cccc(F)c4)c(C(N)=O)nn3)cc2)CC1 [Compound 19]")
"< 6.00"
>>> readout_value("CCn1cc(Nc2cc(NCc3cccc(F)c3F)c(C(N)=O)nn2)cn1 [Compound 120]")
"< 6.00"
>>> readout_value("NC(=O)c1nnc(Nc2ccc(N3CCOCC3)cc2)cc1NCc1cc(F)cc(F)c1 [Compound 36]")
"< 6.00"
>>> readout_value("CS(=O)(=O)Cc1ccc(Nc2cc(NCc3cc(F)ccc3F)c(C(N)=O)nn2)cc1 [Compound 88]")
"6.00 to 7.00"
>>> readout_value("NC(=O)c1nnc(Nc2ccc(N3CCNCC3)cc2)cc1NC1CCCC1 [Compound 13]")
"< 6.00"
>>> readout_value("CCC(=O)N1CCN(c2ccc(Nc3cc(NCc4cc(F)cc(F)c4)c(C(N)=O)nn3)cc2)CC1 [Compound 31]")
"< 6.00"
>>> readout_value("NC(=O)c1nnc(Nc2ccc(N3CCOCC3)cc2)cc1NC1CCC1 [Compound 6]")
"< 6.00"
>>> readout_value("NC(=O)c1nnc(Nc2cccc(N3CCOCC3)n2)cc1NCc1cccc(F)c1 [Compound 62]")
"< 6.00"
>>> readout_value("NC(=O)c1nnc(Nc2ccc(C(=O)N3CCCC3)cc2)cc1NCc1cccc(F)c1F [Compound 83]")
"< 6.00"
>>> readout_value("NC(=O)c1nnc(Nc2ccc(N3CCNCC3)cc2)cc1NCc1cccc2ccsc12 [Compound 99]")
"6.00 to 7.00"
>>> readout_value("CC(=O)N1CCN(c2ccc(Nc3cc(NCC4CCNCC4)c(C(N)=O)nn3)cc2)CC1 [Compound 63]")
"< 6.00"
>>> readout_value("CC(=O)N1CCN(c2ccc(Nc3cc(NCc4cccc(C#N)c4)c(C(N)=O)nn3)cc2)CC1 [Compound 72]")
"< 6.00"
>>> readout_value("N#Cc1ccc(N2CCC(Nc3cc(Nc4cnccn4)nnc3C(N)=O)CC2)nc1 [Compound 97]")
"8.00 to 9.00"
>>> readout_value("COc1ccccc1CNc1cc(Nc2ccc(N3CCN(C(C)=O)CC3)cc2)nnc1C(N)=O [Compound 24]")
"6.00 to 7.00"
>>> readout_value("CN(C)C(=O)c1ccc(Nc2cc(NCc3cccc(F)c3)c(C(N)=O)nn2)cc1 [Compound 59]")
"< 6.00"
>>> readout_value("CC(=O)N1CCN(c2ccc(Nc3cc(NCc4ccccc4)c(C(N)=O)nn3)cc2)CC1 [Compound 5]")
"< 6.00"
>>> readout_value("CS(=O)(=O)Cc1ccc(Nc2cc(NCc3cccc(F)c3F)c(C(N)=O)nn2)cc1 [Compound 89]")
"6.00 to 7.00"
>>> readout_value("CS(=O)(=O)c1ccc(Nc2cc(NCc3cccc(F)c3)c(C(N)=O)nn2)cc1 [Compound 84]")
"< 6.00"
>>> readout_value("NC(=O)c1nnc(Nc2ccc3c(c2)CS(=O)(=O)C3)cc1NCc1cccc(F)c1 [Compound 107]")
"< 6.00"
>>> readout_value("NC(=O)c1nnc(Nc2ccc(C(=O)N3CCCC3)cc2)cc1NCc1cccc(F)c1 [Compound 52]")
"< 6.00"
